Cited source: paper PMC9482650

experimental.target: NHERF2_2, Q15599
Sequence (Q15599 142-238): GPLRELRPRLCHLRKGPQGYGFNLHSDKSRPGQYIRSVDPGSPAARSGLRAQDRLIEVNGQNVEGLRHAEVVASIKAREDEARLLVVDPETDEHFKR
measurement.protocol: holdup assay
Parameters: key: below the threshold = too weak to quantify, mostly under pKd 3.1 to 4
test.parameters: plain residues with an end cap or a label only (N-terminal biotin on a linker: ado-ado)
parameter: pKd

>>> df
                       binder  parameter       measured_value
0   APIAGFSSFV [SDK2, Q58EX2]        pKd                 3.98
1   TNSRHGETTV [FZD2, Q14332]        pKd  below the threshold
2  SPDRDRESIV [SCN5A, Q14524]        pKd  below the threshold
